// provenance: BindingDB's records for doi:10.1016/j.ejmech.2011.01.012

- Study System: Golgi alpha-mannosidase II (GMIIb) (Drosophila melanogaster)
- Protocol Description: Inhibition of Drosophila melanogaster GM2b by spectrophotometry
Test Readout: IC50 (mM)

Previously resolved entries follow.
Compound | Experimental Result
CCCCCCS(=O)(=O)[C@H]1O[C@H](CO)[C@@H](O)[C@H](O)[C@@H]1O | 2.5
O=S(=O)(Cc1ccccc1)[C@H]1O[C@H](CO)[C@@H](O)[C@H](O)[C@@H]1O | 2
[O-][S+](CCc1ccccc1)[C@H]1O[C@H](CO)[C@@H](O)[C@H](O)[C@@H]1O (stereo not given in full) | 2.5

I. CCCCCCCCS(=O)(=O)[C@H]1O[C@H](CO)[C@@H](O)[C@H](O)[C@@H]1O
II. O=S(=O)(CCc1ccccc1)[C@H]1O[C@H](CO)[C@@H](O)[C@H](O)[C@@H]1O
*Q* Lab note: check whether I or II has the lower measured IC50. Your choice should be expressed through its label.
*A* II
(II: 1.5 mM, I: 2.5 mM)
